Kindly state GI50 for each of the entries shown.
System: SNB-19 CNS
testMethodNotes: NCI tumour cell line growth inhibition, 48 h

CCN1C(=O)N(CC)C2C1NN=c1s/c(=C\c3ccc(C(F)(F)F)cc3)c(=O)n12 (centres undefined); 0.647 µM
COc1cc2c(cc1O)c(=O)n(CCN(C)C)c1c3cc4c(cc3ncc21)OCO4; < 0.01 µM
S=C1SCN(Cc2ccccc2)CN1Cc1ccccc1; > 54.7 µM

Lab note: next compound to report on.
Q. Fill in: GI50 of COc1ccc(C2=NN(C(C)=O)C(c3ccc(Oc4ccnc5cc(Cl)ccc45)c(OC)c3)C2)cc1 (centres undefined) is ___
A. 26.8 µM

Origin of measurements: PubChem BioAssay (NCI)
